target: TDO2 in A172 cancer cells (Homo sapiens, UniProt P48775); construct: endogenous in cells; experiment: TDO2 Cellular Assay (kynurenine production in A172 cancer cells); settings: L-Trp 1 mM, 24 hours incubation, kynurenine at 490 nm
Sequence (P48775 whole entry): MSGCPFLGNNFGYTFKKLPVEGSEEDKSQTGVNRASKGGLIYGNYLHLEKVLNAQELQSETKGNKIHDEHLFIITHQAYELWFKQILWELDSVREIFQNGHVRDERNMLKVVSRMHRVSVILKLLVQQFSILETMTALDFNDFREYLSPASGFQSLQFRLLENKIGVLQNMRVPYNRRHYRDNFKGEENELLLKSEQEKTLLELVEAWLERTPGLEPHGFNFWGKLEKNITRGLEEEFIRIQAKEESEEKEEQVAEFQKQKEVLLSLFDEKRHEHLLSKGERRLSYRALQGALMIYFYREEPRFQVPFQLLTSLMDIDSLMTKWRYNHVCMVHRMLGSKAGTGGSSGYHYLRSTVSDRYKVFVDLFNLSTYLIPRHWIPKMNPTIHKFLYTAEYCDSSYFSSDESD
pIC50: −log10 of the molar value.
Please go through the items and note down their pIC50.

Form field: reported pIC50 of CC(C)S(=O)(=O)N[C@H]1[C@@H]2C[C@@](O)(c3cc(Cl)cc4[nH]ncc34)C[C@@H]21
≥ 6.30

Proceed to CC1(C)[C@H]2CN(c3cc(Cl)cn4cncc34)C[C@H]2CN1S(C)(=O)=O (racemic)
5.30 to 6.00

Proceed to CC1(C)C2CN(c3cc(Cl)cc4[nH]ncc34)CC2CN1C(=O)C1CC1 (stereo not shown)
6.00 to 6.30

Proceed to O=C(C1CCOC1)N1C[C@@H]2C[C@@](O)(c3cc(Cl)cc4[nH]ncc34)C[C@@H]2C1 (stereo partly shown)
≥ 6.30

Proceed to O=S(=O)(N[C@H]1[C@@H]2C[C@@](O)(c3cc(Cl)cc4[nH]ncc34)C[C@@H]21)C1CCCCC1
≥ 6.30

Proceed to CS(=O)(=O)N[C@@H]1[C@@H]2CN(c3cc(Cl)cc4[nH]ncc34)C[C@@H]21
5.30 to 6.00

Proceed to CC(=O)N1C[C@@H]2CN(c3cc(Cl)cc4[nH]ncc34)C[C@@H]2C1
6.00 to 6.30
